pKi: −log10 of the molar value.
What follows is a record of pKi for Carbonic anhydrase 2 (Homo sapiens).
value type: pKi

P = NS(=O)(=O)c1ccc(Cl)cc1 [p-Halide-sulfanilamide derivative, 2]
Q = CN(C)S(=O)(=O)c1ccc(N=Nc2ccc(O)cc2)cc1
R = NS(=O)(=O)c1ccc(I)cc1 [p-Halide-sulfanilamide derivative, 3]
Exercise: Kindly provide a descending ordering of the above compounds based on their pKi. Quick reminder: the answer is the labels in the order asked.
Key: P, R, Q

====

assayed target: UniProt:P43166
Sequence (P43166 whole entry): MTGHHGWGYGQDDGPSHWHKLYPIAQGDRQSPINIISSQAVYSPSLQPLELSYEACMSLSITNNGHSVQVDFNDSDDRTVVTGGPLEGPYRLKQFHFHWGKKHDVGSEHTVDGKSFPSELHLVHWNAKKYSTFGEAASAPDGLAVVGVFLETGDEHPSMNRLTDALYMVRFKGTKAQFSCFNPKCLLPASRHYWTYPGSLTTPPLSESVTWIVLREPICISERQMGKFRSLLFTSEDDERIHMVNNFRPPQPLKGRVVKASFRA
pKi: −log10 of the molar value.
value type: pKi

| compound | value type | value reported |
| --- | --- | --- |
| NS(=O)(=O)c1ccc(Br)cc1 [p-Halide-sulfanilamide derivative, 2a] | pKi | 7.17 |

a = NS(=O)(=O)c1ccc(O)cc1 [p-Hydroxy-benzene derivative, 3a]
b = CN(C)c1ccc(/N=N/c2ccc(S(N)(=O)=O)cc2)cc1
c = CN(C)S(=O)(=O)c1ccc(N=Nc2ccc(O)cc2)cc1 [p-Phenyldiazenyl derivative, 7]
Exercise: Please put the entries in order of rising pKi. Use the labels to give the requested order.
Key: c, a, b

Source: BindingDB's records for doi:10.1111/j.1747-0285.2009.00842.x
